This collection of values is drawn from paper PMC8399019.

molecular target: Human Cathepsin L (Homo sapiens); construct: purchased ABCAM ab174030; test: Enzyme inhibition assay, Human Cathepsin L (fluorometric); format: biochemical; settings: triplicates, value (SD)
Sequence (P07711 114-333): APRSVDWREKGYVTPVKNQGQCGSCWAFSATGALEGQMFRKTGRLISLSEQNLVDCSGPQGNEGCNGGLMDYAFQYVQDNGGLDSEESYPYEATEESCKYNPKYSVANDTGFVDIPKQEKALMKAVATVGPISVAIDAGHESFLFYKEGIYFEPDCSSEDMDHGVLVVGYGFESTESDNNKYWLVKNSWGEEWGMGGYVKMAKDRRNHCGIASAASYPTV
assay readout: IC50
State the value, then name its unit.

Record request: IC50 value, item CC1CCC(c2ccoc2)N2C1CCC1(CSC3(CCC4C(C)CCC(c5ccoc5)N4C3O)C1)C2O (stereo not shown) [DTBN, 6,6′-dihydroxythiobinupharidine]
13.2 µM
